Assay: Saturation solubility
Assay type: physicochemical
Conditions: water, thermodynamic from solid, ddH2O, 25° C., mean ± SD, BDL: Below detection limit
Description: Samples of 5 mg of compounds were added to 5 ml volumetric flasks containing ddH2O and shaken at 100 rpm in an incubator at 25° C. for 90 minutes. The resulting suspension was filtered through a 0.22 μm filter. The concentrations of compounds were determined spectrophotometrically at 256 nm. The saturation solubility of each sample was determined in triplicates and the mean value and standard deviation were reported.
measurement.type: solubility at 90 min (µg/mL)

[1] Nc1cc(F)ccc1NC(=O)c1ccc(NC(=O)C/C=C/c2cccnc2)cn1
[2] Cc1ccc(/C=C/CC(=O)Nc2ccc(C(=O)Nc3ccc(F)cc3N)nc2)cn1
Parameter check: reported solubility at 90 min is higher for which label, 1 or 2 ? Selection: enter the item's label. 2

Data origin: patent US11672788B2
